experimentalTarget: Transcriptional activator protein LuxR (Aliivibrio fischeri, UniProt P12746)
Sequence (P12746 whole entry): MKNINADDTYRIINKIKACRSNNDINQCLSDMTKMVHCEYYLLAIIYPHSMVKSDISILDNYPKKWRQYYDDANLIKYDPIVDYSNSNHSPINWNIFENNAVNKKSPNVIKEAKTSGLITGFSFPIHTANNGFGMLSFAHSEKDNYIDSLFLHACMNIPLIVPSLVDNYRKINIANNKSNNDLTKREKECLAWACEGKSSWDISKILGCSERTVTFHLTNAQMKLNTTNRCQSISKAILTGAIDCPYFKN
assayMethodText: Antagonist activity at Vibrio fischeri LuxR expressed in Escherichia coli NM522 coexpressing LuxCDABE assessed as inhibition of 3-oxoC6-HSL-induced quorum sensing activation measured after 4 to 5 hrs by reporter gene assay
Type: functional
measurementContext: read-out: IC50
Would you kindly list pIC50 for each of these molecules?
Numbers only, as −log10 of the molar value.

Example results:
CCCCCc1cn(CC(=O)OCC)nn1	4.03
CCCCCc1cn(C2CCOC2=O)nn1 (racemic)	4.29
CCCCCCn1nnnc1C1CCOC1=O (racemic)	4.13

Now consider a different molecule.
Query string: // query pIC50 value for entry CCCCCn1nnnc1C1CCOC1=O (racemic)
Result string: 4.10
